The origin of these recorded values is patent US20130244929A1.

SYSTEM NAME: SpsB (Staphylococcus aureus, UniProt P0A070)
Construct: using a bacterial membrane fraction as a source of SpsB; from tissue
Sequence (P0A070 1-191): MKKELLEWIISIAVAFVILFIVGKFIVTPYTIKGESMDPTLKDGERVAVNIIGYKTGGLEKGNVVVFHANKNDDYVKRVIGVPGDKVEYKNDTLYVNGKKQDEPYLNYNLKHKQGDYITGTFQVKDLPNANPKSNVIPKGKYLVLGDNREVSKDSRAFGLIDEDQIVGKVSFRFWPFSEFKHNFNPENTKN
PROCEDURE TEXT: Inhibition of SpsB enzyme activity (fluorescence-based assay, bacterial membrane fraction)
Format: biochemical
MEASURED QUANTITY: IC50

-- ask Which IC50 reading was recorded for the molecule CC(c1ccc(-c2ccc(C(=O)NCCC(=O)N[C@@H](CCCCN)C(=O)N(C)[C@@H]3C(=O)N[C@@H](C)C(=O)N[C@H](C(=O)O)Cc4ccc(O)c(c4)-c4cc3ccc4O)cc2)cc1)C12CC3CC(CC(C3)C1)C2 (some centres unmarked) ?
-- reply < 0.01 µM

-- ask Could you share which IC50 value was measured for CCCCCCCCCc1ccc(-c2ncc(C(=O)NCCC(=O)N[C@@H](CCCCN(C)C)C(=O)N(C)[C@@H]3C(=O)N[C@@H](C)C(=O)N[C@H](C(=O)O)Cc4ccc(O)c(c4)-c4cc3ccc4O)cn2)cc1 ?
-- reply < 0.01 µM

-- ask What measured IC50 goes with CCCCc1ccc(-c2ccc(C(=O)NCCC(=O)N[C@@H](CCCCN)C(=O)N(C)[C@@H]3C(=O)N[C@@H](C)C(=O)N[C@H](C(=O)O)Cc4ccc(O)c(c4)-c4cc3ccc4O)cc2)cc1 ?
-- reply < 0.01 µM

-- ask Request the reported IC50 associated with CCCc1ccc(-c2ccc(C(=O)NCCC(=O)N3CC(CCN)C[C@H]3C(=O)N(C)[C@@H]3C(=O)N[C@@H](C)C(=O)N[C@H](C(=O)O)Cc4ccc(O)c(c4)-c4cc3ccc4O)cc2)cc1 (some centres unmarked)
-- reply < 0.01 µM

-- ask Which IC50 value is on record for C[C@@H]1NC(=O)[C@@H](N(C)C(=O)[C@H](CCCCN)NC(=O)CCNC(=O)c2coc(CCCCCCCCc3ccccc3)n2)c2ccc(O)c(c2)-c2cc(ccc2O)C[C@@H](C(=O)O)NC1=O ?
-- reply 0.01 to 0.05 µM
